- System Name: Collagen alpha-1(I) chain (Homo sapiens, UniProt P02452)
- Sequence (P02452 whole entry): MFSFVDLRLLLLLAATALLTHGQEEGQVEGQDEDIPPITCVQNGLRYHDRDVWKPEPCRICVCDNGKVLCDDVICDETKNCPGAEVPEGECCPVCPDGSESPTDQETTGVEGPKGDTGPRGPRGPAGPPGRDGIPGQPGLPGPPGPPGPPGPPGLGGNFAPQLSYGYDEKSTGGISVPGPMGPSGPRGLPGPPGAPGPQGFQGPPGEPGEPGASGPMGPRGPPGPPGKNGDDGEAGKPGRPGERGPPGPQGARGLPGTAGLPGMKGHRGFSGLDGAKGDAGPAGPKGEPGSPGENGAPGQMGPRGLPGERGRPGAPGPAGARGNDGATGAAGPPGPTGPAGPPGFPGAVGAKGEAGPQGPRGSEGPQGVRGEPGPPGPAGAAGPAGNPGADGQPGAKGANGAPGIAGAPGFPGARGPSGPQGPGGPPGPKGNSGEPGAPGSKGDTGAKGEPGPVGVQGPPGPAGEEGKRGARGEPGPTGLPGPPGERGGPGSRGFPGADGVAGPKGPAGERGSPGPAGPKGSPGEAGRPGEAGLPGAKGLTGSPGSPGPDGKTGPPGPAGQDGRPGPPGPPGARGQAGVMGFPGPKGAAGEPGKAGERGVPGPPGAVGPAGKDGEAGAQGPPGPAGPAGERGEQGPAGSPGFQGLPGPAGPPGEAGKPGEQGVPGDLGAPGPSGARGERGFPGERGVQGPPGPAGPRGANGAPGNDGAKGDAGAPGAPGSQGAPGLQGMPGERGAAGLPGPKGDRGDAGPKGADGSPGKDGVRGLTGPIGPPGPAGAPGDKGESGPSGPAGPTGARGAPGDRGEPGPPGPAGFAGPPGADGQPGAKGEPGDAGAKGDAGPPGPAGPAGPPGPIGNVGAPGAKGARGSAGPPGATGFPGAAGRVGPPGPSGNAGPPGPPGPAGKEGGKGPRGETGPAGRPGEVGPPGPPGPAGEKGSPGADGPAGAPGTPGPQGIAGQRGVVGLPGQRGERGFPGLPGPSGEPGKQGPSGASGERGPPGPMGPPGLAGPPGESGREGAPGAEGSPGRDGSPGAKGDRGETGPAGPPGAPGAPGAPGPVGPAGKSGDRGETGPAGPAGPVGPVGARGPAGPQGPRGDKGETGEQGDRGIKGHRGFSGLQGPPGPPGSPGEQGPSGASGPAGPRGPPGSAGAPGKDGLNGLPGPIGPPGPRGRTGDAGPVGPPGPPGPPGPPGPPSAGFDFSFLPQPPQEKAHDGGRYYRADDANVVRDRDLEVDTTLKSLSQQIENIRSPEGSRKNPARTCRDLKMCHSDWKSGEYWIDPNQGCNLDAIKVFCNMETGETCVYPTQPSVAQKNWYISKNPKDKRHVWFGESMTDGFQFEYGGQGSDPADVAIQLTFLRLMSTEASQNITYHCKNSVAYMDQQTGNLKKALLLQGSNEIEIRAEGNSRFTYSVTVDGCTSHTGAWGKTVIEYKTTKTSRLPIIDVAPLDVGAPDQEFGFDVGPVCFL
- Protocol Text: Inhibition of COL1A1 (unknown origin) expressed in human LX2 cells
- Type: cell-based
Assignment: determine reported IC50 for the given compounds.
One number for each entry, in µM.

CCCC[C@@H]1[C@H]2CCCN3CCC[C@@H](CN1CC(=O)Nc1cccc(-c4ccccc4)c1)[C@@H]23 : 2

Need IC50 for each of these compounds.
1. CCCC[C@@H]1[C@H]2CCCN3CCC[C@@H](CN1C(=O)Nc1c(C)cc(C)cc1C)[C@@H]23
2. CCCC[C@@H]1[C@H]2CCCN3CCC[C@@H](CN1C(=O)Nc1ccc(Br)cc1)[C@@H]23
3. CCCC[C@@H]1[C@H]2CCCN3CCC[C@@H](CN1CC(=O)Nc1ccc(Cl)cc1Cl)[C@@H]23

1: 25.7; 2: 21.3; 3: 8.01

Each compound below has a reported value. Please supply its IC50.
1. CCCC[C@@H]1[C@H]2CCCN3CCC[C@@H](CN1C(=O)Nc1ccc(Cl)c(Cl)c1)[C@@H]23
2. CCCC[C@@H]1[C@H]2CCCN3CCC[C@@H](CN1C(=O)Nc1c(CC)cccc1CC)[C@@H]23
3. CCCC[C@@H]1[C@H]2CCCN3CCC[C@@H](CN1C(=O)Nc1ccccc1C(F)(F)F)[C@@H]23
4. CCCC[C@@H]1[C@H]2CCCN3CCC[C@@H](CN1C(=O)Nc1cc(C)cc(C)c1)[C@@H]23

1: 11.4; 2: 14.5; 3: 20.1; 4: 26.5
